Reported tissue uptake at 1 h values for the following compounds.
- methodDescription: in vivo
- Parameters: species or system mice
- recordedConditions: male, NOD.Cg-Rag1tm1Mom Il2rgtm1Wjl/SzJ (NRG), mouse, iv, total radioactivity, Biodistribution: Testes
Where a SMILES comes first, the peptide text is derived from it. Bridges are numbered along the chain shown (N, C = ends). [ ]: non-standard residue; d: D form. The star is where a group is joined. X4 = O=C(O)CN1CCN(CC(=O)O)CCN(CC(=O)N[C@@H](CS(=O)(=O)O)C(=O)NCCCC[C@H](NC(=O)CNC(=O)CCCc2ccc(Cl)cc2)C(=O)*)CCN(CC(=O)O)CC1; 2Nal = N[C@@H](Cc1ccc2ccccc2c1)C(=O)O; Lys(iPr) = CC(C)NCCCC[C@H](N)C(=O)O

compound | tissue uptake at 1 h (%ID/g)
CC(C)NCCCC[C@H](NC(=O)[C@@H]1CCSc2c3cccc([N+](=O)[O-])c3cn2[C@@H](CCCCNC(=O)[C@H](CS(=O)(=O)O)NC(=O)CN2CCN(CC(=O)O)CCN(CC(=O)O)CCN(CC(=O)O)CC2)C(=O)CC(Cc2ccc(O)cc2)C(=O)N[C@@H](CCCCNC(C)C)C(=O)N[C@H](CCCNC(=N)N)C(=O)N[C@@H](Cc2ccc3ccccc3c2)C(=O)N[C@H](C)C(=O)N1)C(N)=O (some centres unmarked) [[^68Ga]Ga-3NOPA-BL34L2, metal not drawn] | 0.33
CC(C)NCCCC[C@H](NC(=O)[C@H]1CCC(=O)N[C@@H](CCCCNC(=O)[C@H](CCCCNC(=O)[C@H](CS(=O)(=O)O)NC(=O)CN2CCN(CC(=O)O)CCN(CC(=O)O)CCN(CC(=O)O)CC2)NC(=O)CNC(=O)CCCc2ccc(Cl)cc2)C(=O)N[C@@H](Cc2ccc(O)cc2)C(=O)N[C@@H](CCCCNC(C)C)C(=O)N[C@H](CCCNC(=N)N)C(=O)N[C@@H](Cc2ccc3ccccc3c2)C(=O)N[C@H](C)C(=O)N1)C(N)=O [[68Ga]Ga-BL34T1, metal not drawn] (K(X4)Y[Lys(iPr)][dR][2Nal][dA][dE][Lys(iPr)]-NH2; lactam N-7) | 1.95
